Target: recombinant mouse 11β-HSD1 (Mus musculus, UniProt P50172)
Sequence (P50172 whole entry): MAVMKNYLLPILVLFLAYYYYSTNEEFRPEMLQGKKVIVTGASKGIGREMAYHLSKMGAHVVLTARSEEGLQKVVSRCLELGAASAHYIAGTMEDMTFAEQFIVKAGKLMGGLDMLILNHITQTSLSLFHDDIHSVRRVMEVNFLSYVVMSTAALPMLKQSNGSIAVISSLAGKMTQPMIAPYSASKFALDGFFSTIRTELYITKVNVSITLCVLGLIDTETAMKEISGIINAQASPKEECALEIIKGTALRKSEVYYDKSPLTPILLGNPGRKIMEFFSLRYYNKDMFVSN
Test: Enzyme activity assay on mouse 11β-HSD1 (HTRF, corticosterone production)
Conditions: recombinant mouse 11β-HSD1, 2 μM 11-dehydrocorticosterone as substrate, 2 hours at 37° C., read-out: mouseIC50
pIC50: −log10 of the molar value.
property: pIC50

Solved cases (3 shown):
Tell me measured pIC50 for COCC(C)(C)COc1noc(C(=O)NC2C3CC4CC(C3)CC2C4)c1SC(C)C (centres unmarked) please.
7.68

Tell me measured pIC50 for CC(C)Sc1c(OCC(C)(C)C(=O)N2CCNCC2)noc1C(=O)NC1C2CC3CC(C2)CC1C3 (centres unmarked) please.
7.31

Tell me measured pIC50 for CC(C)Sc1c(OCC(C)(C)NC(=O)C2(N)CC2)noc1C(=O)NC1C2CC3CC(C2)CC1C3 (centres unmarked) please.
7.64

A: O=C(NC1(COc2noc(C(=O)N[C@H]3C4CC5CC3C[C@](O)(C5)C4)c2SC2CCCC2)CC1)c1ccc(Cl)cc1Cl
B: CC(C)Sc1c(OCC(C)(C)N)noc1C(=O)NC1C2CC3CC(C2)CC1C3 (centres unmarked)
Which has the higher pIC50, A or B ? Mark your answer with the label of the selected entry.
A
(A: 7.57, B: 6.48)

P: CC(C)Sc1c(OCC(C)(C)NC(=O)NCCN)noc1C(=O)NC1C2CC3CC(C2)CC1C3 (centres unmarked)
Q: CC(C)(COc1noc(C(=O)N[C@H]2C3CC4CC2C[C@](O)(C4)C3)c1SC1CCCC1)N1CCOC1=O
R: CC(C)CSc1c(OCC(C)(C)CCCN)noc1C(=O)NC1C2CC3CC(C2)CC1C3 (centres unmarked)
Sort these compounds on pIC50 so the largest reading comes first. Kindly provide the labels arranged according to the requested ordering.
R, Q, P
